settings: in toluene, 324.65 K
Observation type: solubility (mole fraction)

Structure string	Observation type	Value observed
Nc1ccc(Sc2ccc([N+](=O)[O-])cc2)cc1	solubility (mole fraction)	0.0506

* * *

settings: in toluene, 289.75 K

Structure string	solubility (mole fraction)
Nc1ccc(Sc2ccc([N+](=O)[O-])cc2)cc1	0.0183

* * *

details: in chlorobenzene, 301.75 K

Structure string	solubility (mole fraction)
Nc1ccc(Sc2ccc([N+](=O)[O-])cc2)cc1	0.0174

* * *

conditions: in dichloromethane, 287.45 K
Observation type: solubility (mole fraction)

Structure string	Value observed
Nc1ccc(Sc2ccc([N+](=O)[O-])cc2)cc1	0.0244
